system tested: human mAChR M4 (Homo sapiens, UniProt P08173)
Sequence (P08173 whole entry): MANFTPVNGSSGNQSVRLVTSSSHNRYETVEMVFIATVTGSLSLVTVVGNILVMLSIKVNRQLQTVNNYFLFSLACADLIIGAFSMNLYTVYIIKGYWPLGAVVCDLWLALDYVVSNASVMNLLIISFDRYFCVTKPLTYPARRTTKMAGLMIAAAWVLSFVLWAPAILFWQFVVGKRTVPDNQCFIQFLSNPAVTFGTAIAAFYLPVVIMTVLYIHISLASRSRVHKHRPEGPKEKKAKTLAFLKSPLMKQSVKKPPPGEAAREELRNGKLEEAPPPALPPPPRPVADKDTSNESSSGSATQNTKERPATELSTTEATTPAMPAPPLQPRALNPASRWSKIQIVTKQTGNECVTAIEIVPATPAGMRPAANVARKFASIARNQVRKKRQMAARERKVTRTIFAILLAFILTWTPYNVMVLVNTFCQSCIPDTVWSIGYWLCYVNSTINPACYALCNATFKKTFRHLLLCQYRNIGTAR
assay explanation: mAChR M4 cell-based functional assay: calcium mobilization (Fluo-4, FDSS), potentiation of EC20 acetylcholine response in hM4-Gqi5 CHO-K1 cells
applied conditions: potentiation of EC20 acetylcholine response, calcium mobilization, human M4
pEC50: −log10 of the molar value.
Label Y for high-side pEC50 (at or above 7) and N for low-side pEC50 (below it).

>  <mol smiles>
Cc1cc(=O)n2nc(N3CCc4ncc(-c5cnc(Cl)cc5C)cc4C3)c(C)c(C)c2n1

>  <system tested>
human mAChR M4 (Homo sapiens, UniProt P08173)

>  <category>
N

$$$$
>  <mol smiles>
Cc1cc2nccc(=O)n2nc1N1CCc2ncc(-c3cc(F)ccn3)cc2C1

>  <system tested>
human mAChR M4 (Homo sapiens, UniProt P08173)

>  <category>
N

$$$$
>  <mol smiles>
Cc1cc(=O)n2nc(N3CCc4ncc(-c5cnccc5C)cc4C3)c(C)c(C)c2n1

>  <system tested>
human mAChR M4 (Homo sapiens, UniProt P08173)

>  <category>
N

$$$$
>  <mol smiles>
Cc1c(N2CCc3ncc(OCCN4CCOC4=O)cc3C2)nn2c(=O)ccnc2c1C

>  <system tested>
human mAChR M4 (Homo sapiens, UniProt P08173)

>  <category>
N

$$$$
>  <mol smiles>
COc1cc(Nc2cnc3c(c2)CN(c2nn4c(=O)ccnc4cc2C)CC3)ccn1

>  <system tested>
human mAChR M4 (Homo sapiens, UniProt P08173)

>  <category>
Y

$$$$
>  <mol smiles>
CCn1cc(-c2cnc3c(c2)CN(c2nn4c(=O)cc(C(F)F)nc4c(C)c2C)CC3)cn1

>  <system tested>
human mAChR M4 (Homo sapiens, UniProt P08173)

>  <category>
N

$$$$
>  <mol smiles>
Cc1cc2nccc(=O)n2nc1N1CCc2ncc(Nc3ccnc(F)c3)cc2C1

>  <system tested>
human mAChR M4 (Homo sapiens, UniProt P08173)

>  <category>
Y

$$$$
>  <mol smiles>
Cc1cc2nc(C(=O)NCc3cncs3)cc(=O)n2nc1N1CCc2ncc(C(F)(F)F)cc2C1

>  <system tested>
human mAChR M4 (Homo sapiens, UniProt P08173)

>  <category>
N

$$$$
>  <mol smiles>
Cc1cc2nccc(=O)n2nc1N1CCc2ncc(-c3cnccc3C#N)cc2C1

>  <system tested>
human mAChR M4 (Homo sapiens, UniProt P08173)

>  <category>
N

$$$$
>  <mol smiles>
Cc1c(N2CCc3ncc(-c4cncc(F)c4)cc3C2)nn2c(=O)ccnc2c1C

>  <system tested>
human mAChR M4 (Homo sapiens, UniProt P08173)

>  <category>
N

$$$$
>  <mol smiles>
Cc1c(N2CCc3ncc(-c4cnn(C(F)F)c4)cc3C2)nn2c(=O)ccnc2c1C

>  <system tested>
human mAChR M4 (Homo sapiens, UniProt P08173)

>  <category>
N

$$$$
>  <mol smiles>
Cc1cc(Cl)ncc1-c1cnc2c(c1)CN(c1nn3c(=O)ccnc3cc1C)CC2

>  <system tested>
human mAChR M4 (Homo sapiens, UniProt P08173)

>  <category>
N

$$$$
>  <mol smiles>
Cc1cc(Nc2cnc3c(c2)CN(c2nn4c(=O)ccnc4cc2C)CC3)cnc1Cl

>  <system tested>
human mAChR M4 (Homo sapiens, UniProt P08173)

>  <category>
N

$$$$
>  <mol smiles>
Cc1cc(=O)n2nc(N3CCc4ncc(-c5ccccc5C(C)C)cc4C3)c(C)c(C)c2n1

>  <system tested>
human mAChR M4 (Homo sapiens, UniProt P08173)

>  <category>
N

$$$$
>  <mol smiles>
Cc1c(N2CCc3ncc(C(F)(F)F)cc3C2)nn2c(=O)cc(C(F)(F)F)nc2c1C

>  <system tested>
human mAChR M4 (Homo sapiens, UniProt P08173)

>  <category>
N

$$$$
>  <mol smiles>
Cc1ccc(-c2cnc3c(c2)CN(c2nn4c(=O)cc(C)nc4c(C)c2C)CC3)c(C)c1

>  <system tested>
human mAChR M4 (Homo sapiens, UniProt P08173)

>  <category>
N

$$$$
>  <mol smiles>
Cc1cncc(-c2cnc3c(c2)CN(c2nn4c(=O)cc(C)nc4c(C)c2C)CC3)c1

>  <system tested>
human mAChR M4 (Homo sapiens, UniProt P08173)

>  <category>
N

$$$$
>  <mol smiles>
Cc1cc2nccc(=O)n2nc1N1CCc2ncc(-c3cncn3C)cc2C1

>  <system tested>
human mAChR M4 (Homo sapiens, UniProt P08173)

>  <category>
N

$$$$
>  <mol smiles>
COCc1cc(=O)n2nc(N3CCc4ncc(-c5cccc(F)c5)cc4C3)c(C)cc2n1

>  <system tested>
human mAChR M4 (Homo sapiens, UniProt P08173)

>  <category>
N

$$$$
>  <mol smiles>
[2H]C1([2H])Cc2ncc(Nc3cccnc3C)cc2C([2H])([2H])N1c1nn2c(=O)ccnc2cc1C

>  <system tested>
human mAChR M4 (Homo sapiens, UniProt P08173)

>  <category>
N

$$$$
>  <mol smiles>
Cc1cc(F)ncc1-c1cnc2c(c1)CN(c1nn3c(=O)ccnc3cc1C)CC2

>  <system tested>
human mAChR M4 (Homo sapiens, UniProt P08173)

>  <category>
N

$$$$
>  <mol smiles>
Cc1c(N2CCc3ncc(-c4ccc(-n5ccnc5)nc4)cc3C2)nn2c(=O)ccnc2c1C

>  <system tested>
human mAChR M4 (Homo sapiens, UniProt P08173)

>  <category>
N

$$$$
>  <mol smiles>
C=Cc1cnc2cc(C)c(N3CCc4ncc(C(F)(F)F)cc4C3)nn2c1=O

>  <system tested>
human mAChR M4 (Homo sapiens, UniProt P08173)

>  <category>
N

$$$$
>  <mol smiles>
Cc1cc2nccc(=O)n2nc1N1CCc2ncc(Nc3cc(F)cc(F)c3)cc2C1

>  <system tested>
human mAChR M4 (Homo sapiens, UniProt P08173)

>  <category>
Y

$$$$
>  <mol smiles>
Cc1c(N2CCc3ncc(-c4cc(F)ncc4F)cc3C2)nn2c(=O)ccnc2c1C

>  <system tested>
human mAChR M4 (Homo sapiens, UniProt P08173)

>  <category>
N

$$$$
>  <mol smiles>
COc1ncc(-c2cnc3c(c2)CN(c2nn4c(=O)cc(C(F)F)nc4c(C)c2C)CC3)cc1Cl

>  <system tested>
human mAChR M4 (Homo sapiens, UniProt P08173)

>  <category>
N

$$$$
>  <mol smiles>
COCc1cc(=O)n2nc(N3CCc4ncc(-c5ccc(OC(F)F)nc5)cc4C3)c(C)c(C)c2n1

>  <system tested>
human mAChR M4 (Homo sapiens, UniProt P08173)

>  <category>
N

$$$$
>  <mol smiles>
Cc1cc2nccc(=O)n2nc1N1CCc2ncc(-c3sccc3C)cc2C1

>  <system tested>
human mAChR M4 (Homo sapiens, UniProt P08173)

>  <category>
Y

$$$$
>  <mol smiles>
Cc1c(N2CCc3ncc(-c4cccnc4)cc3C2)nn2c(=O)ccnc2c1C

>  <system tested>
human mAChR M4 (Homo sapiens, UniProt P08173)

>  <category>
N

$$$$
>  <mol smiles>
Cc1cc2nc(C(F)F)cc(=O)n2nc1N1CCc2ncc(N3CCOC(C)(C)C3)cc2C1

>  <system tested>
human mAChR M4 (Homo sapiens, UniProt P08173)

>  <category>
Y

$$$$
